Below, each of the molecules is paired with its reported EC50 value.
Biological target: human activated kallikrein enzyme (Homo sapiens, UniProt P03952)
Sequence (P03952 391-638 limits assumed): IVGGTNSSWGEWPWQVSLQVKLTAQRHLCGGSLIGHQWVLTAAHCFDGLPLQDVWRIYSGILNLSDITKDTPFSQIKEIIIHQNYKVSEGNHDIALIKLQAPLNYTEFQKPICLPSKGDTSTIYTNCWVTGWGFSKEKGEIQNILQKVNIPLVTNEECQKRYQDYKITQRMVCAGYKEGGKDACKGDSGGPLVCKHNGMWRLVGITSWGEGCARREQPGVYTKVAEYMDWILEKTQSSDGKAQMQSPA
Sequence (P03952 20-390 partner limits assumed): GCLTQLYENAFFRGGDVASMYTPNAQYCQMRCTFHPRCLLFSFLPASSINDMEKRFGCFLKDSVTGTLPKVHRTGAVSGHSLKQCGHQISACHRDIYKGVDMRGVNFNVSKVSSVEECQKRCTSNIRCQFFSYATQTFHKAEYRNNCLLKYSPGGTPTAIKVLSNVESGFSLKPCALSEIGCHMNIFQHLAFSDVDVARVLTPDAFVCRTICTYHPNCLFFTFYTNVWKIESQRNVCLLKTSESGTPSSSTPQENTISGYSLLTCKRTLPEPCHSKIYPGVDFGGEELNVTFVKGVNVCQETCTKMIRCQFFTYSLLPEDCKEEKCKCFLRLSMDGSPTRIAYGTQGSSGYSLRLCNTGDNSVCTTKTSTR
Assay: Plasma kallikrein inhibition, fluorogenic PFR-AMC substrate, 500 pM activated kallikrein format
Assay type: biochemical
Conditions: 500 pM activated kallikrein, 300 uM PFR-AMC, 30 min preincubation, 10 min reaction; read-out: Primary Dose Response Assay: Average EC50
Measure Name: EC50

{"columns": ["Molecule", "Result"],
 "data": [
  ["Cc1ccnc([C@H]2C[C@@H]2C(=O)Nc2cc(N[C@H](C)c3cn4cc(C5CC5)cc(N5CCOC5=O)c4n3)ncn2)n1 [Example 534]", "< 1 nM"],
  ["O=C(O)CCc1cc(C2CC2)cn2cc(CNc3ccnc(NC(=O)[C@H]4C[C@@H]4c4cccc(Cl)c4)c3)nc12 [Example 290]", "< 1 nM"],
  ["O=C(Nc1cc(NCc2cn3cc(C4CC4)cc(N4CCOC4=O)c3n2)ncn1)[C@H]1C[C@@H]1c1cc(Cl)ccn1 [Example I-172]", "< 1 nM"],
  ["O=C(Nc1cc(NCc2cn3cc(C4CC4)cc(COCCO)c3n2)ccn1)[C@H]1C[C@@H]1c1cccc(Cl)c1 [Example 288]", "< 1 nM"],
  ["Cc1ccnc([C@H]2C[C@@H]2C(=O)Nc2cc(N[C@H](C)c3cn4cc(C5CC5)cc(N5C(=O)N(C)C(=O)C56COC6)c4n3)ncn2)n1 [Example 420]", "< 1 nM"],
  ["O=C(Nc1cc(NCc2cn3cc(C4CC4)cc(N4CCN5CCC4C5)c3n2)ncn1)[C@H]1C[C@@H]1c1cccc(Cl)c1 (stereo partly drawn) [Example I-11]", "1 to 10 nM"]
]}
